Test system: HT29 colon
Assay: NCI-60 one-dose screen, 48 h
Details: 10 µM unless noted
Procedure: Growth inhibition of the HT29 human tumor cell line is measured as a screen for anti-cancer activity. Cells are grown in 96 well plates and exposed to the test compound for 48 hours. Compounds are tested at a single concentration, which is 10^-5 M for most compounds. The reported endpoint is percent growth (GI% or GIPRCNT), where numbers from 0 - 100% represent growth inhibition, and numbers from -100% - 0 represent cell death. For example, a value of 40 represents 60% growth inhibition. […]
Compounds without any hit were thinned out: in the full panel of roughly 83,000, 20% have a hit. Activity calls are given as the source filed them. How the source made its calls: active means growth percent below 10; inactive means the rest.
Please reply with one of these outcomes: active, inactive

// below: answered compounds
Compound | Qualitative label
COc1ccc(-c2cc(Nc3ccnc(N4CCOCC4)n3)on2)cc1 | active
Cn1cccc1-c1nc2c3c(ccc2[nH]1)C(=O)c1ccccc1C3=O | inactive
Cn1cc(C(=O)c2nc(-c3c[nH]c4ccc(Br)cc34)no2)c2cc(F)ccc21 | inactive

Turning now to a further compound:
Please state the recorded outcome for this compound: `Cc1c(/C=C/[N+](=O)[O-])ccc2c1[nH]c1ccccc12`
inactive
